Method summary: chemical genetic growth profiling, strain panel (AID 1159580);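 further: tested at 20 µM; growth read once vehicle control cultures reached saturation at 30 °C; 1 = growth at the plate median or of vehicle wells; lower values mean less growth of the strain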
Recorded conditions: S. cerevisiae deletion strains, growth OD, locus YLR342W, strain FKS1, hits give low values
In all, about 5,500 compounds went through this assay and about 2,000 (36%) were called active. Not shown: some 18% with an inconclusive outcome. Some of the results follow.
For each record, write down the corresponding normalized growth.
Please state the value as a number alone, without comment.

Fill in the blank: the reported normalized growth of CC(=O)OCC1=C(C(=O)O)N2C(=O)[C@@H](NC(=O)CCCC(N)C(=O)O)C2SC1 (stereo not given in full) is ____.
1.01

Here is the next compound: COc1cc2c(cc1O)CCNC2C (stereo not given)
0.987

Here is the next compound: COc1c2c(cc3c1OCO3)C13C=C[C@H](OC)CC1N(C2)CC3O (stereo not given in full)
0.988

Here is the next compound: O=C(NC1CCCCC1)NC1CCCCC1
0.975

Here is the next compound: CC(=O)OCC(=O)[C@@]1(O)CCC2C3CCC4=CC(=O)CC[C@]4(C)C3[C@@H](O)C[C@@]21C (stereo not given in full)
1.02

Here is the next compound: Cc1cc(C(C)(C)C)cc(C)c1CC1=NCCN1
1

Here is the next compound: CO[C@@]1(NC(=O)Cc2cccs2)C(=O)N2C(C(=O)O)=C(COC(N)=O)CS[C@@H]21
0.953

Here is the next compound: C[C@]12CCC(=O)C=C1CCC1C2C(=O)C[C@@]2(C)C1CC[C@]2(O)C(=O)CO (stereo not given in full)
0.992

Here is the next compound: CCc1cccc2c3c([nH]c12)C(CC)(CC(=O)O)OCC3 (stereo not given)
0.985

Here is the next compound: NC[C@H]1O[C@H](O[C@H]2[C@H](O)[C@@H](O[C@H]3O[C@H](CO)[C@@H](O)[C@H](N)[C@H]3O)[C@H](N)C[C@@H]2N)[C@H](N)C[C@@H]1O
1.01

----------
Method summary: chemical genetic growth profiling, strain panel (AID 1159580);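 further: tested at 20 µM; growth read once vehicle control cultures reached saturation at 30 °C; 1 = growth at the plate median or of vehicle wells; lower values mean less growth of the strain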
Recorded conditions: S. cerevisiae deletion strains, growth OD, locus YMR231W, strain pep5, hits give low values
The whole screen tested about 5,500 compounds, of which about 2,000 (36%) were called active. Inconclusive results (about 18%) are left out. The list shows a part of the results. *1 amine or outer side, *2 acyl side, *3 side chain or, on linkers, in order; H or OH if unused. Where a SMILES comes first, the peptide text is derived from it. Bridges are numbered along the chain shown (N, C = ends). [ ]: non-standard residue; d: D form. The star is where a group is joined. ξ: configuration not given here. ΔAla(E,3-NHCONH2) = NC(=O)N/C=C(/N)C(=O)O; X2 = NC1=NCCC(C(N[*:1])C(=O)[*:2])N1; ξβ3hOrn = NCCCC(N)CC(=O)*; Dap = NC[CH](N)C(=O)O
For each record, write down the corresponding normalized growth.
Please state the value as a number alone, without comment.

Fill in the blank: the reported normalized growth of COc1ccc2c(c1)[C@]13CCCC[C@H]1[C@H](C2)N(C)CC3 is ____.
0.965

Here is the next compound: COc1cc2c(cc1O)CCNC2C (centres undefined)
0.984

Here is the next compound: CC(=O)Oc1cccc2c1C(=O)c1c(OC(C)=O)cc(C(=O)O)cc1C2=O
0.942

Here is the next compound: NCCCC(N)CC(=O)NCC1NC(=O)C(CO)NC(=O)C(N)CNC(=O)C(C2CCN=C(N)N2)NC(=O)/C(=C\NC(N)=O)NC1=O (stereo not drawn) (H-[Dap]S[Dap](ξβ3hOrn)[ΔAla(E,3-NHCONH2)][X2]; lactam 1-C; configuration not given here)
1

----------
Method summary: chemical genetic growth profiling, strain panel (AID 1159580);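 further: tested at 20 µM; growth read once vehicle control cultures reached saturation at 30 °C; 1 = growth at the plate median or of vehicle wells; lower values mean less growth of the strain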
Recorded conditions: S. cerevisiae deletion strains, growth OD, locus YER155C, strain BEM2, hits give low values
Among all 5,500 compounds or so, about 2,000 (36%) were called active. Inconclusive results (about 18%) are left out. This is one part of the list.
Readout label: normalized growth
Please state the value as a number alone, without comment.

Fill in the blank: the reported normalized growth of CC(=O)Oc1cccc(C(=O)O)c1OC(C)=O is ____.
1

Here is the next molecule: CCOc1ccc(NC(C)=O)cc1
0.984

Here is the next molecule: OCCN1CCN(CCCN2c3ccccc3Sc3ccc(C(F)(F)F)cc32)CC1
0.989

Here is the next molecule: CN1CCN(CCC=C2c3ccccc3Sc3ccc(S(=O)(=O)N(C)C)cc32)CC1
0.999

Here is the next molecule: CC(=O)O[C@H]1CC[C@]2(C)C3CC[C@@]4(C)C(CC5O[C@@]6(CCC(C)CO6)[C@@H](C)C54)C3CC[C@H]2C1 (stereo not given in full)
0.984

Here is the next molecule: CN[C@@H]1[C@@H](O[C@H]2O[C@H](CO)[C@@H](N)[C@H](O)[C@H]2O)O[C@H]2C[C@@H](N)[C@H](O[C@H]3[C@H](O)[C@@H](O)[C@H](N)C[C@@H]3N)O[C@@H]2[C@@H]1O
1.01

Here is the next molecule: COC(=O)C[C@H]1C(C)(C)[C@@H](O)[C@@H]2CC3=C4C=C(OC)O[C@@H](c5ccoc5)[C@]4(C)CCC3[C@@]1(C)C2=O (stereo not given in full)
1

Here is the next molecule: CC(=O)O[C@@H]1CC[C@]2(C)C3CC[C@]4(C)C(=O)CCC4C3CC[C@H]2C1 (stereo not given in full)
1.01

Here is the next molecule: COc1ccc(C(=O)c2ccc(O)cc2)c(O)c1O
1.02

Here is the next molecule: CC(=O)Oc1cccc2c1C(=O)c1c(OC(C)=O)cc(C(=O)O)cc1C2=O
1.01

Here is the next molecule: CN(C)CCc1c[nH]c2ccc(CS(=O)(=O)N3CCCC3)cc12
1.02

Here is the next molecule: CCOc1ccc(C(=O)c2cc(O)c(OC)c(OC)c2O)cc1
0.995

Here is the next molecule: CCCCc1nc(Cl)c(CO)n1Cc1ccc(-c2ccccc2-c2nn[nH]n2)cc1
0.973

Here is the next molecule: O=C(O)c1cc(=O)c2c(Cl)cc(Cl)cc2[nH]1
0.994

Here is the next molecule: CCOC([O-])=Nc1c[n+](N2CCOCC2)no1
1

Here is the next molecule: CC(=O)O[C@H]1CC[C@]2(C)C3CC[C@@]4(C)C(CC5O[C@@]6(CCC(C)CO6)[C@@H](C)C54)C3CC[C@@H]2C1 (stereo not given in full)
0.975

Here is the next molecule: COc1ccc(C(=O)O)c(O)c1OC
1.01

Here is the next molecule: NC[C@H]1O[C@H](O[C@H]2[C@H](O)[C@@H](O[C@H]3O[C@H](CO)[C@@H](O)[C@H](N)[C@H]3O)[C@H](N)C[C@@H]2N)[C@H](N)C[C@@H]1O
1.02

Here is the next molecule: CCCCCCCCCCCCCCCCCCOCC(O)CO (stereo not given)
1.01

Here is the next molecule: COc1cc(O)cc(OC)c1OC
1.02

----------
Method summary: chemical genetic growth profiling, strain panel (AID 1159580);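 further: tested at 20 µM; growth read once vehicle control cultures reached saturation at 30 °C; 1 = growth at the plate median or of vehicle wells; lower values mean less growth of the strain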
Recorded conditions: S. cerevisiae deletion strains, growth OD, locus YJL168C, strain set2, hits give low values
About 2,000 (36%) of roughly 5,500 compounds were called active. Roughly 18% stayed inconclusive and do not appear here. The list shows a part of the results. *1 amine or outer side, *2 acyl side, *3 side chain or, on linkers, in order; H or OH if unused. Where a SMILES comes first, the peptide text is derived from it. Bridges are numbered along the chain shown (N, C = ends). [ ]: non-standard residue; d: D form. The star is where a group is joined. ξ: configuration not given here. ΔAla(E,3-NHCONH2) = NC(=O)N/C=C(/N)C(=O)O; X2 = NC1=NCCC(C(N[*:1])C(=O)[*:2])N1; ξβ3hOrn = NCCCC(N)CC(=O)*; Dap = NC[CH](N)C(=O)O
For each record, write down the corresponding normalized growth.
Please state the value as a number alone, without comment.

Fill in the blank: the reported normalized growth of CC(=O)c1cc2c(cc1O)OC(C)(C)C=C2 is ____.
0.991

Here is the next molecule: NC(=O)N1c2ccccc2C=Cc2ccccc21
0.994

Here is the next molecule: COc1cccc(O)c1O
1

Here is the next molecule: CN1CCN(CCCN2c3ccccc3Sc3ccc(C(F)(F)F)cc32)CC1
0.0656

Here is the next molecule: Cc1cc(=O)n(-c2ccccc2)n1C
0.983

Here is the next molecule: CN1CCN(CCC=C2c3ccccc3Sc3ccc(S(=O)(=O)N(C)C)cc32)CC1
0.971

Here is the next molecule: CCOc1ccc(C(=O)c2ccc(O)c(O)c2O)cc1
0.963

Here is the next molecule: COc1ccc(C(=O)O)c(O)c1OC
0.997

Here is the next molecule: NCC1OC(OC2C(CO)OC(OC3C(O)C(N)CC(N)C3OC3OC(CO)C(O)CC3N)C2O)C(N)C(O)C1OC1OC(CO)C(O)C(O)C1O (configuration not stated)
0.986

Here is the next molecule: NCCCC(N)CC(=O)NCC1NC(=O)C(CO)NC(=O)C(N)CNC(=O)C(C2CCN=C(N)N2)NC(=O)/C(=C\NC(N)=O)NC1=O (stereo not drawn) (H-[Dap]S[Dap](ξβ3hOrn)[ΔAla(E,3-NHCONH2)][X2]; lactam 1-C; configuration not given here)
1.01

Here is the next molecule: CCOc1ccc(C(=O)c2cc(O)c(OC)c(OC)c2O)cc1
1.01

Here is the next molecule: CCC1(CC)C(=O)C=CNC1=O
1
